Data origin, for the record: ChEMBL document CHEMBL3433997

Biological target: Hexose transporter 1 (Plasmodium falciparum)
Assay: ST_JUDE_LEISH: Cytotoxicity at 2uM final concentration against transgenic Leishmania Mexicana promastigotes LmPfHT that are glucose transport deficient and complemented with the Plasmodium falciparum hexose transporter. Activity is measured by DNA content using SYBR green in vitro
Assay type: functional
quantity measured: inhibition (%)
Write down the numeric answer in % and omit the unit.

Exercise: Query: inhibition; subject: CO/C(=C\C=C\c1cc2cc(Cl)c(Cl)cc2[nH]1)C(=O)Nc1ccc(NCCN(C)C)nc1
Solution: 6.98

Exercise: Now try CC(C)COc1ccc(Cl)cc1Cc1nc(-c2nc3ccc(CN4CCN(C)CC4)cc3[nH]2)co1 .
Solution: 7.62
